Target: BACE1 (Homo sapiens (Human), UniProt P56817)
Sequence (P56817 46-501): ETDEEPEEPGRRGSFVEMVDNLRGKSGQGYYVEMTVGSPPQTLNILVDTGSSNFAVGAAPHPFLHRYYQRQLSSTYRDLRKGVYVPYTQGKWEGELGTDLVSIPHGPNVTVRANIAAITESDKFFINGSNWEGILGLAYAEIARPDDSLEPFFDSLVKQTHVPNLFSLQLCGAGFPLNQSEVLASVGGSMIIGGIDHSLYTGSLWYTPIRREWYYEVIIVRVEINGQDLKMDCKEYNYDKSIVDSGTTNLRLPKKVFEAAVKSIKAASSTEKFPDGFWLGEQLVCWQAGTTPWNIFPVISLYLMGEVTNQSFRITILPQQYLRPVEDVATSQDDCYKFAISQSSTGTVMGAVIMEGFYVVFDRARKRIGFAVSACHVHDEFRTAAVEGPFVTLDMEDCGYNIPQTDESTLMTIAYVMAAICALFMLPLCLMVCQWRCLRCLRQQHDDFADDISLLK
Test: Measurement of Aβ production inhibition in cell (SK-N-BE(2) neuroblastoma cells, Aβ40 ELISA)
Conditions: Test Example 3 IC50, Aβ40 production, SK-N-BE(2) cells, 6 hours
This section presents molecules with their documented log10 of IC50 values.
parameter: log10 of IC50 (log10 of the value in nM)

>  <molecule>
Cc1cnc(Cl)c(-c2ccc3c(c2)C2(COC(N)=N2)C2(COC2)C(C)(C)O3)c1 (stereo not shown)

>  <endpoint result>
2.45

$$$$
>  <molecule>
CC1(C)Oc2ccc(Br)cc2C2(CSC(N)=N2)C12COC2 (stereo not shown)

>  <endpoint result>
3.77

$$$$
>  <molecule>
CC1(C)Oc2ccc(-c3c(F)ccc(F)c3F)cc2C2(COC(N)=N2)C12COC2 (stereo not shown)

>  <endpoint result>
2.88

$$$$
>  <molecule>
CC#Cc1cncc(-c2ccc3c(c2)C2(COC(N)=N2)C2(COC2)CO3)n1 (stereo not shown)

>  <endpoint result>
3.46

$$$$
>  <molecule>
CC1(C)Oc2ccc(-c3cc(F)cc(F)c3)cc2C2(COC(N)=N2)C12COC2 (stereo not shown)

>  <endpoint result>
2.23

$$$$
>  <molecule>
CCOc1cccc(-c2ccc3c(c2)C2(COC(N)=N2)C2(COC2)C2(CCC2)O3)c1 (stereo not shown)

>  <endpoint result>
3.51

$$$$
>  <molecule>
CC#Cc1cncc(-c2cc3c(cc2F)OCC2(CC2)C32COC(N)=N2)c1 (stereo not shown)

>  <endpoint result>
2.82

$$$$
>  <molecule>
CC#Cc1cncc(-c2ccc3c(c2)C2(COC(N)=N2)C2(COC2)C(CC2CC2)O3)c1 (stereo not shown)

>  <endpoint result>
1.34

$$$$
>  <molecule>
COc1cccnc1Nc1ccc2c(c1)C1(COC(N)=N1)C1(COC1)CO2 (stereo not shown)

>  <endpoint result>
1.84

$$$$
>  <molecule>
NC1=NC2(CO1)c1cc(-c3cncnc3)ccc1OC1(CCC1)C21COC1 (stereo not shown)

>  <endpoint result>
2.77

$$$$
>  <molecule>
NC1=NC2(CO1)c1cc(-c3cncnc3)ccc1OCC21COC1 (stereo not shown)

>  <endpoint result>
2.91

$$$$
>  <molecule>
CC#Cc1cncc(-c2ccc3c(c2)C2(COC(N)=N2)C2(COC2)C2(CCC2)O3)c1 (stereo not shown)

>  <endpoint result>
1.68

$$$$
>  <molecule>
NC1=NC2(CO1)c1cc(-c3cccc(F)c3F)ccc1OC1(CCC1)C21COC1 (stereo not shown)

>  <endpoint result>
3.18

$$$$
>  <molecule>
CC#Cc1cncc(-c2ccc3c(c2)C2(COC(N)=N2)C2(COC2)C(CCC(F)(F)F)O3)c1 (stereo not shown)

>  <endpoint result>
1.34

$$$$
>  <molecule>
NC1=NC2(c3cc(-c4cncnc4)ccc3OCC23CC3)c2cccc(F)c21 (stereo not shown)

>  <endpoint result>
2.38

$$$$
>  <molecule>
NC1=NC2(CO1)c1cc(-c3cncc(Cl)c3)ccc1OCC21CC1 (stereo not shown)

>  <endpoint result>
2.66

$$$$
>  <molecule>
CC1(C)Oc2ccc(-c3cncc(Cl)n3)cc2C2(COC(N)=N2)C12COC2 (stereo not shown)

>  <endpoint result>
2.65

$$$$
>  <molecule>
COc1cncc(-c2ccc3c(c2)C2(COC(N)=N2)C2(CC2)CO3)c1 (stereo not shown)

>  <endpoint result>
2.53

$$$$
>  <molecule>
NC1=NC2(CO1)c1cc(-c3cc(Cl)cnc3F)ccc1OC1(CCC1)C21COC1 (stereo not shown)

>  <endpoint result>
1.85

$$$$
>  <molecule>
NC1=NC2(CO1)c1cc(-c3cncnc3)ccc1OCC21CC1 (stereo not shown)

>  <endpoint result>
2.40

$$$$
>  <molecule>
COc1cnc(C(=O)Nc2ccc3c(c2)C2(COC(N)=N2)C2(CC2)CO3)cn1 (stereo not shown)

>  <endpoint result>
1.91

$$$$
>  <molecule>
CC1(C)Oc2ccc(-c3cc(Cl)cnc3Cl)cc2C2(COC(N)=N2)C12COC2 (stereo not shown)

>  <endpoint result>
2.04

$$$$
>  <molecule>
NC1=NC2(CO1)c1cc(-c3cc(Cl)cnc3F)ccc1OCC21COC1 (stereo not shown)

>  <endpoint result>
2.41

$$$$
>  <molecule>
CC1(C)Oc2ccc(-c3cccc4cnccc34)cc2C2(COC(N)=N2)C12COC2 (stereo not shown)

>  <endpoint result>
2.69

$$$$
>  <molecule>
N#C/C=C/c1cccc(-c2ccc3c(c2)C2(COC(N)=N2)C2(COC2)C2(CCC2)O3)c1 (stereo not shown)

>  <endpoint result>
3.08

$$$$
>  <molecule>
NC1=NC2(CO1)c1cc(-c3cc(F)ccc3F)ccc1OC1(CCC1)C21COC1 (stereo not shown)

>  <endpoint result>
3.23

$$$$
>  <molecule>
NC1=NC2(CO1)c1cc(-c3cncnc3)c(F)cc1OCC21CC1 (stereo not shown)

>  <endpoint result>
2.38

$$$$
>  <molecule>
NC1=NC2(CO1)c1cc(NC(=O)c3ccc(F)cn3)ccc1OCC21CC1 (stereo not shown)

>  <endpoint result>
1.79

$$$$
>  <molecule>
CC1(C)Oc2ccc(Br)cc2C2(COC(N)=N2)C12COC2 (stereo not shown)

>  <endpoint result>
3.59

$$$$
>  <molecule>
CC1(C)Oc2ccc(-c3cc(Cl)cnc3F)cc2C2(COC(N)=N2)C12COC2 (stereo not shown)

>  <endpoint result>
1.51

$$$$
>  <molecule>
CCC(CC)Cc1ccc2c(c1)C1(COC(N)=N1)C1(COC1)C1(CCC1)O2 (stereo not shown)

>  <endpoint result>
3.15

$$$$
>  <molecule>
CC1(C)Oc2ccc(-c3cc(F)cnc3Cl)cc2C2(COC(N)=N2)C12COC2 (stereo not shown)

>  <endpoint result>
2.11

$$$$
>  <molecule>
NC1=NC2(CO1)c1cc(-c3cncnc3)ccc1OC(CC1CC1)C21COC1 (stereo not shown) [RP 204]

>  <endpoint result>
2.38

$$$$
>  <molecule>
CC1(C)Oc2ccc(-c3cnc4[nH]ccc4c3)cc2C2(COC(N)=N2)C12COC2 (stereo not shown)

>  <endpoint result>
2.49

$$$$
>  <molecule>
CC(C)Cc1ccc2c(c1)C1(COC(N)=N1)C1(COC1)C1(CCC1)O2 (stereo not shown)

>  <endpoint result>
3.15

$$$$
>  <molecule>
NC1=NC2(CO1)c1cc(-c3cccc(F)c3)ccc1OC1(CCC1)C21COC1 (stereo not shown)

>  <endpoint result>
2.76

$$$$
>  <molecule>
CC1(C)Oc2ccc(-c3ccc4nonc4c3)cc2C2(COC(N)=N2)C12COC2 (stereo not shown)

>  <endpoint result>
2.91

$$$$

* * *

This section presents compounds with their documented pIC50 values.
Target: hERG potassium channel (Homo sapiens (Human))
Sequence (Q12809 whole entry): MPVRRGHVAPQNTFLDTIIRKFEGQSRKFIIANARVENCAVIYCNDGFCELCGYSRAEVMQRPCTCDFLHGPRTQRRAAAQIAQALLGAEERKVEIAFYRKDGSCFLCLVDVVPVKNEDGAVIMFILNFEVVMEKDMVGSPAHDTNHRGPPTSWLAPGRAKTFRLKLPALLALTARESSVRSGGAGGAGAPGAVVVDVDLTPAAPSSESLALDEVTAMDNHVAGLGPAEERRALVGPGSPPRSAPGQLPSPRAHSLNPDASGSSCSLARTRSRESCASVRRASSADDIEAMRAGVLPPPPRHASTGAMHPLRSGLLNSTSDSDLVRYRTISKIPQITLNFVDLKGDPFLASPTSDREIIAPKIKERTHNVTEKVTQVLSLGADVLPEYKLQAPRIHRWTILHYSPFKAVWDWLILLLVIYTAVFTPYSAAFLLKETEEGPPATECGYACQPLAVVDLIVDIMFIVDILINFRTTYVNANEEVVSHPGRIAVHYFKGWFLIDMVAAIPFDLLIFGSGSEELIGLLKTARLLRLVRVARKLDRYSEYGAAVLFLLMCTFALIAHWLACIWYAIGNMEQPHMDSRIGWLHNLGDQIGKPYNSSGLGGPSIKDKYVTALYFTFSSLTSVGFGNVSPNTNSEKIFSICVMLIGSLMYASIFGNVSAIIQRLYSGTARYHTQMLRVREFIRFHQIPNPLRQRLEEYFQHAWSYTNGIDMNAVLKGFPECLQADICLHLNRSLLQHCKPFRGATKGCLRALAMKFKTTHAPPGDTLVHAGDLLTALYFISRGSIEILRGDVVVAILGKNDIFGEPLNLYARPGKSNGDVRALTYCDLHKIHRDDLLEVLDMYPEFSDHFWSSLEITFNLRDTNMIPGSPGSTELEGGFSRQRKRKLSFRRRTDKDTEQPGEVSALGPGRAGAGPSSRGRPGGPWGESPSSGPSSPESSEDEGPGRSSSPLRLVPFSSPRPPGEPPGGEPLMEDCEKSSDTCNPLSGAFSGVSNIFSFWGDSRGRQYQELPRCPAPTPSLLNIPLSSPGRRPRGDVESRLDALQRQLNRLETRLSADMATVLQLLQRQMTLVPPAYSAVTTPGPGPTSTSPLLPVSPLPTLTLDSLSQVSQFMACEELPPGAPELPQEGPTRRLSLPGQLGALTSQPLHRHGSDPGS
Assay: hERG inhibition, automated planar patch-clamp in hERG-expressing CHO cells
Settings: read-out: Test Example 5 hERG IC50; whole-cell patch clamp, room temperature
pIC50: −log10 of the molar value. Counter-ions that a name gives are not always drawn.
parameter: pIC50

>  <compound>
NC1=NC2(CO1)c1cc(Br)ccc1OC(CC1CC1)C21COC1 (single isomer, unassigned) [RP 16a]

>  <endpoint result>
< 5.00

$$$$
>  <compound>
NC1=NC2(CO1)c1cc(-c3cncnc3)ccc1OCC21CC(F)(F)C1 (centres unmarked)

>  <endpoint result>
< 5.00

$$$$
>  <compound>
NC1=NC2(CO1)c1cc(-c3cncnc3)ccc1OC(Cc1ccccc1)C21COC1 (centres unmarked) [RP 200]

>  <endpoint result>
< 5.00

$$$$
>  <compound>
NC1=NC2(CO1)c1cc(-c3cc(Cl)cnc3F)ccc1OCC21COC1 (centres unmarked)

>  <endpoint result>
< 5.00

$$$$
>  <compound>
NC1=NC2(CO1)c1cc(-c3cncc(C(F)F)c3)ccc1OC1(CCC1)C21COC1 (centres unmarked)

>  <endpoint result>
< 5.00

$$$$
>  <compound>
COc1cnc(C(=O)Nc2ccc3c(c2)C2(COC(N)=N2)C2(COC2)C(C)(C)O3)cn1 (centres unmarked)

>  <endpoint result>
< 5.00

$$$$
>  <compound>
CC1(C)Oc2ccc(-c3cncnc3)cc2C2(CSC(N)=N2)C12COC2 (centres unmarked) [RP 54, hydrochloride]

>  <endpoint result>
< 5.00

$$$$
>  <compound>
NC1=NC2(CO1)c1cc(-c3cncnc3)c(F)cc1OCC21CC1 (centres unmarked)

>  <endpoint result>
< 5.00

$$$$

* * *

Target: BACE1 (Homo sapiens (Human))
Assay: Measurement of Aβ production inhibition in cell (SK-N-BE(2) neuroblastoma cells, Aβ40 ELISA)
Conditions: Test Example 3 IC50, Aβ40 production, SK-N-BE(2) cells, 6 hours
pIC50: −log10 of the molar value.
This section presents compounds with their documented pIC50 values.
parameter: pIC50

>  <compound>
CCC1Oc2ccc(-c3cncnc3)cc2C2(COC(N)=N2)C12COC2 (centres unmarked) [RP 84]

>  <parameter>
pIC50

>  <endpoint result>
6.39

$$$$
>  <compound>
COC/C=C/c1ccc2c(c1)C1(COC(N)=N1)C1(COC1)C(C)(C)O2 (centres unmarked) [RP 181]

>  <parameter>
pIC50

>  <endpoint result>
6.09

$$$$
>  <compound>
COc1cccnc1Nc1ccc2c(c1)C1(COC(N)=N1)C1(COC1)C1(CCC1)O2 (centres unmarked) [RP 45]

>  <parameter>
pIC50

>  <endpoint result>
7.24

$$$$
>  <compound>
CCOc1cccc(-c2ccc3c(c2)C2(COC(N)=N2)C2(COC2)C(C)(C)O3)c1 (centres unmarked) [RP 144]

>  <parameter>
pIC50

>  <endpoint result>
6.34

$$$$
>  <compound>
CC1(C)Oc2ccc(-c3cccc4[nH]ncc34)cc2C2(COC(N)=N2)C12COC2 (centres unmarked) [RP 176]

>  <parameter>
pIC50

>  <endpoint result>
6.07

$$$$

Value source: patent US8975415B2
